- experimental-target: tissue-nonspecific alkaline phosphatase (TNAP) (Homo sapiens, UniProt P05186)
- Sequence (P05186 18-501): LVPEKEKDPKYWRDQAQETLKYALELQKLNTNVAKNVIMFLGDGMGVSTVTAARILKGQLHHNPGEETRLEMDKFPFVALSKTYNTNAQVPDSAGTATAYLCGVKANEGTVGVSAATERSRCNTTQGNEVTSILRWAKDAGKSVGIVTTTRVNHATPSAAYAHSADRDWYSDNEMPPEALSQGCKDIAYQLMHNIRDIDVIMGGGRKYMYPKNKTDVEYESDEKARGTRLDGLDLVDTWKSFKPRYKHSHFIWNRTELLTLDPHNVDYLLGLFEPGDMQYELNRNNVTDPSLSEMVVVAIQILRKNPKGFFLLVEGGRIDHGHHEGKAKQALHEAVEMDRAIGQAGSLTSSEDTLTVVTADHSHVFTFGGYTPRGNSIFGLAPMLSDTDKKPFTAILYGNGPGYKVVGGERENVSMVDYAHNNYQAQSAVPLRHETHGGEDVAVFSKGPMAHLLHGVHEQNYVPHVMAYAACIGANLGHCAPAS
reported-endpoint: IC50 (nM)
The figure you give is taken to be in nM; do not add the unit.

Give me measured IC50, please, for this molecule: COc1ccc(Cl)cc1S(=O)(=O)Nc1cncc(C(N)=O)c1
14
